Values were extracted from PubChem BioAssay.

Experiment: growth inhibition of GSK3B-pretreated HCT116 cells – cell-based, CellTiter-Glo, 0.2 to 20 µM (AID 1117336)
Conditions: HCT116 viability after GSK3B inhibitor, at 20 µM, stronger effect = higher value
quantity.name: viability decrease (%)
Answer with a number only, understood to be in %.

Consider the reported viability decrease for these compounds:
compound	result.unit	viability decrease
CCCCCCCC(=O)OCC(O)CO (stereo not drawn)	%	-10.8
NC(=O)C(=O)N/N=C/c1ccc([N+](=O)[O-])o1	%	17.6
CN1CCN(N)CC1	%	-1.2
CCOC(=O)c1cccnc1	%	-2.55
O=C(NCN1CCOCC1)c1cnccn1	%	15.3
O=C(O)CCC(=O)O	%	-5.25
CC(C)C[C@H](NC(=O)CNC(=O)[C@H](Cc1ccc(O)cc1)NC(=O)[C@H](CO)NC(=O)[C@H](Cc1c[nH]c2ccccc12)NC(=O)[C@H](Cc1cnc[nH]1)NC(=O)[C@@H]1CCC(=O)N1)C(=O)N[C@@H](CCCN=C(N)N)C(=O)N1CCC[C@H]1C(=O)NCC(N)=O (stereo in doubt)	%	0.3
Cc1coc2ccccc2c1=O	%	2.8
CC(C(=O)O)c1ccc(/C=C2\CCCCC2=O)cc1 (stereo not drawn)	%	5.4
CC(C)[C@H]1CC[C@H](C)C[C@H]1O	%	2

// Input: `CCC1(c2cnc[nH]2)Cc2ccccc2C1` . Output its viability decrease only.
38

Determine its reported viability decrease: `CCOC(=O)C1=C(O)c2ccccc2S(=O)(=O)N1C`
-6

Give me measured viability decrease, please, for this compound: `CCCCCCCCCCCCCCCC[N+](C)(C)CC`
99

###

Assay: modulators of glucocorticoid suppression of NF-kB, cell-based, luciferase, IL-1B stimulus, dexamethasone (AID 624486)
Conditions: NF-kB luciferase reporter, IL-1B + dexamethasone, luminescence; measured here: IL-1B alone, no Dex
z-score strictly under 0.1 means Satisfied; at 0.1 or over means Not satisfied.

# count of solved cases: 3
> print(dat)
                            compound.string  assigned.category
1  N#Cc1cccc(C(=O)c2cnn(-c3ccc(F)cc3)c2N)c1      Not satisfied
2  CCn1c(-c2nonc2N)nc2cncc(C(=O)N3CCNCC3)c21      Not satisfied
3  Cn1cc(C2=C(c3cc[nH]c3)C(=O)NC2=O)c2ccccc21      Not satisfied

Lab log: compare recorded z-score with 0.1; is it strictly lower for `COc1cc(N2CCN(C(C)C)CC2)ccc1Nc1nc(Nc2cccc(F)c2C(=O)O)c2cc[nH]c2n1` ?
Satisfied

Just wondering, is z-score of `COc1cccc(COc2cc(-n3cnc4ccccc43)sc2C(N)=O)c1` below 0.1?
Satisfied

For this compound, is z-score lower than 0.1? `COc1cc(N2CCN(C(C)C)CC2)ccc1Nc1nc(Nc2ccc(F)cc2C(N)=O)c2cc[nH]c2n1`
Satisfied

State whether 0.1 exceeds z-score recorded for `Cc1ccc(C(=O)NC2CCCCC2)cc1-c1ccc(C(=O)NCC2CC2)cc1` .
Satisfied

###

Target: Cellular tumor antigen p53 (Homo sapiens) (UniProt P04637)
Sequence (P04637 whole entry, looked up): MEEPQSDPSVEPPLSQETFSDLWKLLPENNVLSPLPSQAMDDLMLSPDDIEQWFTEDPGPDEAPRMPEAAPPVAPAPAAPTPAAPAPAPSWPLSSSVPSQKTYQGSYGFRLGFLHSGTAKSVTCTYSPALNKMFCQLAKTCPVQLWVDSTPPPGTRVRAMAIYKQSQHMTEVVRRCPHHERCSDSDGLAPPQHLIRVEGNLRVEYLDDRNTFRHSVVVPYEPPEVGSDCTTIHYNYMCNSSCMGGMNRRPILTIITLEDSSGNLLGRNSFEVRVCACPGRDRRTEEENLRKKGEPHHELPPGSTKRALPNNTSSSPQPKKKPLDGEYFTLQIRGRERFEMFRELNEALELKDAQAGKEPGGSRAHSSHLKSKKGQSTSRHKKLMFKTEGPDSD
Test: kinase inhibitors altering GFP-p53 stability in HPV16-positive cells, imaging, known kinase inhibitor set, EGFP/DsRed ratio (AID 1053116);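 further: cells exposed to compounds for 24 h at 37 °C before reading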
Details: stronger effect = higher value; measured here: GFP-p53 positive objects count
quantity.name: EGFP object count
API doc: respond with a numeric literal and nothing else, no unit.

// worked examples, EGFP object count included
> print(dat)
                             compound.string  value.measured
 1                CCn1c(-c2nonc2N)nc2ccncc21               4
 2   Fc1ccc(-c2c(-c3ccncc3)[nH]c3nccnc23)cc1               4
 3  CS(=O)(=O)CCNCc1cc(-c2cc3c(Nc4ccc(OCc5cccc(F)c5)c(Cl)c4)ncnc3s2)cs1             4.5
 4  COc1cc(/C=N/Nc2ncnc3c2cnn3-c2ccccc2)ccc1O             4.5
 5  COc1cc(N2CCN(C(C)C)CC2)ccc1Nc1nc(Nc2cccc3ncccc23)c2cc[nH]c2n1               1
 6  NC(=O)c1ccc(Oc2nccc(-c3c(-c4ccc(F)cc4)ncn3C3CCNCC3)n2)cc1             8.5
 7  CS(=O)(=O)CCNCc1nc(-c2ccc3ncnc(Nc4ccc(F)c(Cl)c4)c3c2)cs1             6.5
 8  Fc1cccc(COc2ccc(Nc3ncnc4sc(-c5ccco5)cc34)cc2Cl)c1             4.5
 9  CS(=O)(=O)CCNCc1ccc(-c2ccc3ncnc(Nc4ccc(OCc5ccccc5)c(C(F)(F)F)c4)c3c2)o1               6
10  COc1cc2c(cc1Nc1nc(Nc3cccc(F)c3C(N)=O)c3cc[nH]c3n1)N(C(=O)CN1CCN(C(C)C)CC1)CC2             4.5

Return value of EGFP object count for input `Cn1c(=O)c(Oc2ccc(F)cc2F)cc2cnc(NCCS(C)(=O)=O)nc21` , no commentary.
1

Check the records and state EGFP object count for `O=C1NC(=NCCc2ccccn2)SC1=Cc1ccc2ncccc2c1`
5.5

Give me measured EGFP object count, please, for this compound: `Cc1[nH]nc2c1N=C(c1ccccc1F)c1cc(C(N)=O)ccc1N2`
54.5

Provide one value: measured EGFP object count of `CS(=O)(=O)N1CCC(n2c(=O)c(Oc3ccc(F)cc3F)cc3cnc(NC4CCOCC4)nc32)CC1`
2

Answer with the recorded EGFP object count of `C[C@@H](Oc1cc(-n2cnc3ccc(OCC4CCN(C)CC4)cc32)sc1C(N)=O)c1ccccc1Cl` only.
7

Quick one: give measured EGFP object count for `Cn1cc(C2=C(c3cn(C)c4cc(C(N)=O)ccc34)C(=O)NC2=O)c2ccccc21`
56.5

Find the measured EGFP object count of `Cc1ccc(Nc2ccnc(Nc3cccc(C(N)=O)c3)n2)cc1O` and report it.
3
